Hey, just so you know, these numbers are from patent US20220040297A1.

- measured-target: T1, CD3ε homodimer protein (human, UniProt P07766 23-126, limits assumed)
- T1 construct: Whole entry named for the human CD3 epsilon chain
- T1 sequence (P07766 23-126 limits assumed): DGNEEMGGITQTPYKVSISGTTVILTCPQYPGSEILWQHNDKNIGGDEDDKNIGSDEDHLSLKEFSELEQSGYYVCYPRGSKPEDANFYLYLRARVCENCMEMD
- experiment-description: SPR, CD3e immobilized
# key: entry, value: KD ratio to GLS3000
Just the number.

GLS3000 H34E (antibody, IgG1, name in Kabat numbering, V domains shown) VH: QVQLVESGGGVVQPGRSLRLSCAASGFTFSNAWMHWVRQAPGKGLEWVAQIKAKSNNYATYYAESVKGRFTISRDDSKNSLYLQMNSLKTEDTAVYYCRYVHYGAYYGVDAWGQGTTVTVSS VL: DIVMTQSPLSLPVTPGEPASISCRSSQSLVHSNRNTYLEWYQQKPGQAPRLLIYKVSNRFSGVPDRFSGSGSGTDFTLKISRVEAEDVGVYYCGQGTQVPYTFGQGTKLEIK	5.03
GLS3000 F55K (antibody, IgG1, name in Kabat numbering, V domains shown) VH: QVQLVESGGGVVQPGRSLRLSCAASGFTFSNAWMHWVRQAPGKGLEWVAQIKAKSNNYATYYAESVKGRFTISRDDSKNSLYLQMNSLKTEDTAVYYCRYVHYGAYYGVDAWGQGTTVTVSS VL: DIVMTQSPLSLPVTPGEPASISCRSSQSLVHSNRNTYLHWYQQKPGQAPRLLIYKVSNRKSGVPDRFSGSGSGTDFTLKISRVEAEDVGVYYCGQGTQVPYTFGQGTKLEIK	1.22
GLS3000 H34M (antibody, IgG1, name in Kabat numbering, V domains shown) VH: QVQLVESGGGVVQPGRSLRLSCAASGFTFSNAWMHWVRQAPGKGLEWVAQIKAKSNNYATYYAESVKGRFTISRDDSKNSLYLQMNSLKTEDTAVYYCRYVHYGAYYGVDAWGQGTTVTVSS VL: DIVMTQSPLSLPVTPGEPASISCRSSQSLVHSNRNTYLMWYQQKPGQAPRLLIYKVSNRFSGVPDRFSGSGSGTDFTLKISRVEAEDVGVYYCGQGTQVPYTFGQGTKLEIK	3.36
GLS3000 R29V (antibody, IgG1, name in Kabat numbering, V domains shown) VH: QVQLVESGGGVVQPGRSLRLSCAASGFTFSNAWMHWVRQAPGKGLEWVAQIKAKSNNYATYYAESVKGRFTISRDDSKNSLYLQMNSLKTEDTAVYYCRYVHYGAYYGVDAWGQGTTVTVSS VL: DIVMTQSPLSLPVTPGEPASISCRSSQSLVHSNVNTYLHWYQQKPGQAPRLLIYKVSNRFSGVPDRFSGSGSGTDFTLKISRVEAEDVGVYYCGQGTQVPYTFGQGTKLEIK	3.25
GLS3000 N30Y (antibody, IgG1, name in Kabat numbering, V domains shown) VH: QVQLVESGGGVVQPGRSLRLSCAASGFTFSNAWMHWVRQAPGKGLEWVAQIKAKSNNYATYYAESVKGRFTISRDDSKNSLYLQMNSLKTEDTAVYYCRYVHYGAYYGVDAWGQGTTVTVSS VL: DIVMTQSPLSLPVTPGEPASISCRSSQSLVHSNRYTYLHWYQQKPGQAPRLLIYKVSNRFSGVPDRFSGSGSGTDFTLKISRVEAEDVGVYYCGQGTQVPYTFGQGTKLEIK	1.01
GLS3000 R45E (antibody, IgG1, name in Kabat numbering, V domains shown) VH: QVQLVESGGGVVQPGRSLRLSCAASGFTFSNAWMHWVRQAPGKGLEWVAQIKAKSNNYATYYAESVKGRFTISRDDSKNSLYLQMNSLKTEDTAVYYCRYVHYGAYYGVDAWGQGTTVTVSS VL: DIVMTQSPLSLPVTPGEPASISCRSSQSLVHSNRNTYLHWYQQKPGQAPELLIYKVSNRFSGVPDRFSGSGSGTDFTLKISRVEAEDVGVYYCGQGTQVPYTFGQGTKLEIK	1.01
GLS3000 Y96F (antibody, IgG1, name in Kabat numbering, V domains shown) VH: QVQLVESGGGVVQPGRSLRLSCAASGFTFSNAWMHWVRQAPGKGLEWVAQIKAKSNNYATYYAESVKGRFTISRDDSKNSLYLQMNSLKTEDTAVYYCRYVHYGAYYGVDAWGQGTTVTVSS VL: DIVMTQSPLSLPVTPGEPASISCRSSQSLVHSNRNTYLHWYQQKPGQAPRLLIYKVSNRFSGVPDRFSGSGSGTDFTLKISRVEAEDVGVYYCGQGTQVPFTFGQGTKLEIK	0.96
GLS3000 L27bE (antibody, IgG1, name in Kabat numbering, V domains shown) VH: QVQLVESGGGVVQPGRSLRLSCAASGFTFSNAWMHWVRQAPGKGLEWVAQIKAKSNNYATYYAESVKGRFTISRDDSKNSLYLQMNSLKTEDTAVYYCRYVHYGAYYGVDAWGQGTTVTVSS VL: DIVMTQSPLSLPVTPGEPASISCRSSQSEVHSNRNTYLHWYQQKPGQAPRLLIYKVSNRFSGVPDRFSGSGSGTDFTLKISRVEAEDVGVYYCGQGTQVPYTFGQGTKLEIK	26.8

Ask: # KD ratio to GLS3000 lookup, item GLS3000 G89A (antibody, IgG1, name in Kabat numbering, V domains shown) VH: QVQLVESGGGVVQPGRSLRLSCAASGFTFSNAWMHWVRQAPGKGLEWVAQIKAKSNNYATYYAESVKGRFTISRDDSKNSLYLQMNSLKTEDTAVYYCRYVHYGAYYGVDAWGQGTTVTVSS VL: DIVMTQSPLSLPVTPGEPASISCRSSQSLVHSNRNTYLHWYQQKPGQAPRLLIYKVSNRFSGVPDRFSGSGSGTDFTLKISRVEAEDVGVYYCAQGTQVPYTFGQGTKLEIK
Result: 1.3

Ask: Do the same for GLS3000 R45Q (antibody, IgG1, name in Kabat numbering, V domains shown) VH: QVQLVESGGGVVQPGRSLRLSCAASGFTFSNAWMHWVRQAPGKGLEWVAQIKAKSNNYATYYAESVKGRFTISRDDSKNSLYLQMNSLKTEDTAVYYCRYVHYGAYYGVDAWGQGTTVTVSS VL: DIVMTQSPLSLPVTPGEPASISCRSSQSLVHSNRNTYLHWYQQKPGQAPQLLIYKVSNRFSGVPDRFSGSGSGTDFTLKISRVEAEDVGVYYCGQGTQVPYTFGQGTKLEIK please
Result: 0.98

Ask: Next entry: GLS3000 V27cE (antibody, IgG1, name in Kabat numbering, V domains shown) VH: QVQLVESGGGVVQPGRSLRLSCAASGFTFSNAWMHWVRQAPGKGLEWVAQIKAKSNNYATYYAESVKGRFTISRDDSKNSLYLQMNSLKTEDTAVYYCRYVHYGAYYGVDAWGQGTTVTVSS VL: DIVMTQSPLSLPVTPGEPASISCRSSQSLEHSNRNTYLHWYQQKPGQAPRLLIYKVSNRFSGVPDRFSGSGSGTDFTLKISRVEAEDVGVYYCGQGTQVPYTFGQGTKLEIK
Result: 1.3
